# assay details: Acute oral toxicity (LD50)
# applied conditions: mouse, in vivo, Maus, p.o.
value kind: LD50 (mg/kg)
Kindly answer with a numeric value in mg/kg, unit omitted.

Ask: // LD50 lookup, key: CC(C)(C)NCC(O)c1cc(Cl)c(N)c(Cl)c1 (stereo not shown)
Reply: 176
